Experiment: chemical genetic growth profiling, strain panel (AID 1159580);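 also: tested at 20 µM; growth read once vehicle control cultures reached saturation at 30 °C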
Conditions: S. cerevisiae deletion strains, growth OD, locus YBR229C, strain ROT2, stronger effect = lower value
In all, about 5,500 compounds went through this assay and about 2,000 (36%) were called active. Inconclusive results (about 18%) are left out. This is one part of the list.
Labelling field: enter y if recorded normalized growth is less than 1. Enter n if it equals or exceeds that cut-off.

- cpd smiles: "NC1=NCCN1CC(=O)O"
  category label: "y"
- cpd smiles: "CC(C)(C)c1cc(C(=O)NNC(=O)c2cc(C(F)(F)F)cc(C(F)(F)F)c2)n(Cc2ccc(F)cc2)n1"
  category label: "n"
- cpd smiles: "Nc1ccc2nonc2c1N"
  category label: "y"

Note: attention shifts to another entry.
INPUT: Consider the molecule `Cc1cccc(Cn2nc(C(C)(C)C)cc2C(=O)O)c1` . Is its normalized growth strictly less than 1?
OUTPUT: y

* * *

Assay: chemical genetic growth profiling, strain panel (AID 1159580);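 also: tested at 20 µM; growth read once vehicle control cultures reached saturation at 30 °C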
Conditions: S. cerevisiae deletion strains, growth OD, locus YAL030W, strain snc1
Among all 5,500 compounds or so, about 2,000 (36%) were called active. Not shown: some 18% with an inconclusive outcome. Cut-off read from the data, not from the text of the source: active = normalized growth mostly below about 0.91 (no sharp cut-off); inconclusive = no clear call, values can overlap the other calls; inactive = mostly above about 0.92. The list shows a part of the results.
Pick one: active, inactive

Completed entries (count: 3):
- compound: "NC(=O)NC(=O)Cc1ccccc1"
  category label: "inactive"
- compound: "CCOC(=O)NNc1nncc2ccccc12"
  category label: "inactive"
- compound: "C/C1=C/CC(C)(C)/C=C/C/C(C)=C/CC1"
  category label: "inactive"

Note: attention shifts to another entry.
INPUT: Write down the call the test reported for this compound. Item: `CS(=O)(=O)c1ccc([C@@H](O)[C@@H](CO)NC(=O)C(Cl)Cl)cc1`
OUTPUT: inactive

* * *

Test: chemical genetic growth profiling, strain panel (AID 1159580);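 also: tested at 20 µM; growth read once vehicle control cultures reached saturation at 30 °C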
Conditions: S. cerevisiae deletion strains, growth OD, locus YDR502C, strain sam2, stronger effect = lower value
Out of some 5,500 compounds screened, about 2,000 (36%) were called active. Not shown: some 18% with an inconclusive outcome. This is one part of the list.
Labelling field: enter criterion met if recorded normalized growth is less than 1. Enter criterion not met if it equals or exceeds that cut-off.

- compound: "CN(C)CCCN1c2ccccc2CCc2ccc(Cl)cc21"
  category label: "criterion met"
- compound: "Nc1ccc(S(=O)(=O)NC(=O)c2ccccc2)cc1"
  category label: "criterion not met"
- compound: "COc1ccc(C2Sc3ccccc3N(CCN(C)C)C(=O)C2OC(C)=O)cc1 (centres undefined)"
  category label: "criterion not met"

INPUT: Consider the compound `COc1ccc2cc(CCC(C)=O)ccc2c1` . Is its normalized growth strictly less than 1?
OUTPUT: criterion met

INPUT: Consider the compound CCC(C)[C@H]1O[C@]2(C=C[C@@H]1C)C[C@@H]1C[C@@H](C/C=C(\C)[C@@H](OC3C[C@H](OC)C(O[C@H]4C[C@H](OC)[C@@H](O)[C@H](C)O4)[C@H](C)O3)[C@@H](C)/C=C/C=C3\CO[C@@H]4[C@H](O)C(C)=C[C@@H](C(=O)O1)[C@]34O)O2 (some centres undefined) . Is its normalized growth strictly less than 1?
OUTPUT: criterion met

INPUT: Consider the compound `CC(=O)c1ccc(O)c(CC=C(C)C)c1` . Is its normalized growth strictly less than 1?
OUTPUT: criterion met

INPUT: Consider the compound `O=C(O)c1ccc(S(=O)(=O)N(Cl)Cl)cc1` . Is its normalized growth strictly less than 1?
OUTPUT: criterion not met
